Biological target: T1, recombinant human PD-1 Fc chimera (human, UniProt Q15116 25-167)
T1 construct: Bought (R&D 1086-PD); Labelled with europium cryptate in the PD-L2 HTRF assay; also called human PD-1 (R&D Systems cat no. 1086-PD); human PD-1-huFc; not shown: human Fc of the bought chimera
T1 sequence (Q15116 25-167, change not shown): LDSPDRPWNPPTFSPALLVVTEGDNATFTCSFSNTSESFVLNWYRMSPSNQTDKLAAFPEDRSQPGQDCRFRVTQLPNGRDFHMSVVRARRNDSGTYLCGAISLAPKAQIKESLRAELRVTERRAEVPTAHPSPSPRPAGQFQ
Assay: BLI (Octet), PD-1-huFc on biosensor, 1:1 fit
Parameter measured: koff (s⁻¹)

Binder	Measure unit	koff
Humabody VH 1.33 (VHH, human VH single domain antibody) VHH: EVQLVESGGGLVQPGRSLRLSCAASGFTFDDYAMHWVRQAPGKDLEWVSGISWNGGSYGYADSVKGRFTISRDNAKNSLYLQMNSLRAEDTALYYCVREKGPGLTGSTADYYGLDAWGQGTMVTVSS	s⁻¹	0.00074
VH single domain antibody 2.1 (VHH, human VH single domain antibody; also called Humabody VH 2.1; clone 2.1) VHH: EVQLVESGGGVVRPGGSLRLSCAASGFTFDDYAMSWVRQAPGKGLEWVSGITWNGGSTGYADSVKDRFTISRDNAKNSLYLQMNSLRAEDTALYYCVRDKYSYAWSYDGFDIWGQGTMVTVSS	s⁻¹	0.0015

I. Humabody VH 1.34 (VHH, human VH single domain antibody) VHH: EVQLVESGGGLVQPGRSLRLSCAASGFTFDDYAMHWVRQAPGKDLEWVSGISWNGGSQGYADSVKGRFTISRDNAKNSLYLQMNSLRAEDTALYYCVREKGPGLTGSTADYYGLDAWGQGTMVTVSS
II. Humabody VH 2.37 (VHH, human VH single domain antibody) VHH: EVQLVESGGGVVRPGGSLRLSCAASGFTFDDYALSWVRQAPGKGLEWVSGITWNGGSTGYADSVKDRFTISRDNAKNSLYLQMNSLRAEDTALYYCVRDKYSYAWSYDGFDIWGQGTMVTVSS
III. Humabody VH 2.52 (VHH, human VH single domain antibody) VHH: EVQLVESGGGVVRPGGSLRLSCAASGFTFDDYAMSWVRQAPGKGLEWVSGITWNGGSTGYADSVKDRFTISRDNAKNSLYLQMNSLRAEDTALYYCVRDKYSYAWSYDVFDIWGQGTMVTVSS
Order these by koff, descending, and give the full ranking. Rank them, then answer with their labels in that order.
III, II, I
(III: 0.0022 s⁻¹, II: 0.0015 s⁻¹, I: 0.0007 s⁻¹)
